System: M. morganii (1 strain), Ent. cloacae (2 strains) and Ser. marcescens (2 strains)
Experiment: MIC, two-fold serial agar dilution, group (G-)-II
Assay type: cell-based
Conditions: (G-)-II, 5 strains, Mueller-Hinton agar; read-out: Geometric Mean of MIC
Entries annotated with measured MIC
# output: bare number, implied unit µg/mL

Example compounds with recorded MIC:
Look up MIC: CO/N=C(\C(=O)NC1C(=O)N2C(C(=O)[O-])=C(C[n+]3ccc4sc(SC)nc4c3)CSC12)c1csc(N)n1 (centres unmarked) 0.24

If you can, please state the reported MIC value of Nc1nc(/C(=N/OC2(C(=O)O)CCC2)C(=O)NC2C(=O)N3C(C(=O)[O-])=C(C[n+]4ccc5scnc5c4)CS[C@H]23)cs1 (some centres unmarked) . 0.34

Others:
Recorded MIC for Nc1nc(/C(=N/OC2(C(=O)O)CCC2)C(=O)NC2C(=O)N3C(C(=O)[O-])=C(C[n+]4ccc5sc(N)nc5c4)CS[C@H]23)cs1 (some centres unmarked) , please? 0.27

Which MIC value is on record for CC(C)(O/N=C(\C(=O)NC1C(=O)N2C(C(=O)[O-])=C(C[n+]3ccc4scnc4c3)CS[C@H]12)c1csc(N)n1)C(=O)O (some centres unmarked) ? 0.88

# input compound: C#CCO/N=C(\C(=O)NC1C(=O)N2C(C(=O)[O-])=C(C[n+]3ccc4sc(N)nc4c3)CS[C@H]12)c1csc(N)n1 (some centres unmarked) ; wanted: its MIC 0.35
